FYI, the data here is from patent US8791154B2.

Experiment: Olopatadine solubility in water and in formulations
Assay type: physicochemical
Settings: pH 6.98, aqueous with cosolvent or surfactant or cyclodextrin, Concentration (mg/mL) of solubilized olopatadine, 4% PVP K29/32, 2.5% SBE-CD, 4% PEG 400, no HPMC, final pH 6.98
OBSERVED_PROPERTY: solubility (µg/mL)
The reply should be a number in µg/mL, with the unit left off.

Give the reported value of solubility for this record: CN(C)CC/C=C1/c2ccccc2COc2ccc(CC(=O)O)cc21 7340

----------
Test: Olopatadine solubility in water and in formulations
Type: physicochemical
Conditions: formulation with PVP K29/32, SBE-CD, PEG 400 and HPMC, pH 7.01, aqueous with cosolvent or surfactant or cyclodextrin, Concentration (mg/mL) of solubilized olopatadine, 4% PVP K29/32, 2.3% SBE-CD, 4% PEG 400, 0.6% HPMC, final pH 7.01
OBSERVED_PROPERTY: solubility (µg/mL)
The reply should be a number in µg/mL, with the unit left off.

Give the reported value of solubility for this record: CN(C)CC/C=C1/c2ccccc2COc2ccc(CC(=O)O)cc21 8660

----------
Test: Olopatadine solubility in water and in formulations
Type: physicochemical
Conditions: pH 7.02, aqueous with cosolvent or surfactant or cyclodextrin, Concentration (mg/mL) of solubilized olopatadine, 4% PVP K29/32, 2.3% SBE-CD, 4% PEG 400, no HPMC, final pH 7.02
OBSERVED_PROPERTY: solubility (µg/mL)
The reply should be a number in µg/mL, with the unit left off.

Give the reported value of solubility for this record: CN(C)CC/C=C1/c2ccccc2COc2ccc(CC(=O)O)cc21 [Olopatadine] 7160

----------
Assay: Olopatadine solubility in water and in formulations
Type: physicochemical
Conditions: formulation with PVP K29/32, SBE-CD, PEG 400 and HPMC, pH 7.02, aqueous with cosolvent or surfactant or cyclodextrin, Concentration (mg/mL) of solubilized olopatadine, 4% PVP K29/32, 2.2% SBE-CD, 4% PEG 400, 0.6% HPMC, final pH 7.02
OBSERVED_PROPERTY: solubility (µg/mL)
The reply should be a number in µg/mL, with the unit left off.

Give the reported value of solubility for this record: CN(C)CC/C=C1/c2ccccc2COc2ccc(CC(=O)O)cc21 8620

----------
Experiment: Olopatadine solubility in water and in formulations
Assay type: physicochemical
Conditions: formulation with PVP K29/32, SBE-CD, PEG 400 and HPMC, pH 6.96, aqueous with cosolvent or surfactant or cyclodextrin, Concentration (mg/mL) of solubilized olopatadine, 4% PVP K29/32, 1.5% SBE-CD, 4% PEG 400, 0.6% HPMC, final pH 6.96
OBSERVED_PROPERTY: solubility
Please give the number followed by its unit.

Give the reported value of solubility for this record: CN(C)CC/C=C1/c2ccccc2COc2ccc(CC(=O)O)cc21 7460 µg/mL

----------
Test: Olopatadine solubility in water and in formulations
Assay type: physicochemical
Conditions: formulation with PVP K29/32, SBE-CD, PEG 400 and HPMC, pH 7.06, aqueous with cosolvent or surfactant or cyclodextrin, Concentration (mg/mL) of solubilized olopatadine, 4% PVP K29/32, 2.0% SBE-CD, 4% PEG 400, 0.6% HPMC, final pH 7.06
OBSERVED_PROPERTY: solubility (µg/mL)
The reply should be a number in µg/mL, with the unit left off.

Give the reported value of solubility for this record: CN(C)CC/C=C1/c2ccccc2COc2ccc(CC(=O)O)cc21 8110
